# Tested on: L1210 leukemia ip in BDF1 mice, survival T/C
# METHOD SUMMARY: NCI In Vivo Anticancer Drug Screen. Data for tumor model L1210 Leukemia (intraperitoneal) in B6D2F1 (BDF1) mice
# CONDITION INFO: endpoint: mean survival time; dose: 25.0 mg/kg/injection; schedule: Q04DX002 (ip); vehicle: saline with Tween-80; higher = longer survival
Inconclusive results and toxic doses are left out.
Known T/C of a selection of compounds
RESULT TYPE: T/C

[[record]]
compound = "CC(=O)Oc1ccc(/C=C/C(=O)O)cc1OC(C)=O"
target_or_test_system = "L1210 leukemia ip in BDF1 mice, survival T/C"
result_type = "T/C"
value_observed = "101 % of control"

[[record]]
compound = "CCC(=O)OC1(c2ccccc2)CCN(CCCc2ccccc2Cl)CC1"
target_or_test_system = "L1210 leukemia ip in BDF1 mice, survival T/C"
result_type = "T/C"
value_observed = "106 % of control"

[[record]]
compound = "CN(C)c1ccc2cc3ccc(N(C)C)cc3nc2c1"
target_or_test_system = "L1210 leukemia ip in BDF1 mice, survival T/C"
result_type = "T/C"
value_observed = "98 % of control"

[[record]]
compound = "CC1(C)OCC(C2OC(c3ccccc3)OC(CO)C2O)O1 (stereo not given)"
target_or_test_system = "L1210 leukemia ip in BDF1 mice, survival T/C"
result_type = "T/C"
value_observed = "101 % of control"

[[record]]
compound = "CNC"
target_or_test_system = "L1210 leukemia ip in BDF1 mice, survival T/C"
result_type = "T/C"
value_observed = "95 % of control"


----------
# System: L1210 leukemia ip in BDF1 mice, survival T/C
# METHOD SUMMARY: NCI In Vivo Anticancer Drug Screen. Data for tumor model L1210 Leukemia (intraperitoneal) in B6D2F1 (BDF1) mice
# CONDITION INFO: endpoint: mean survival time; dose: 200.0 mg/kg/injection; schedule: Q04DX003 (ip); vehicle: saline with Tween-80; higher = longer survival
Inconclusive results and toxic doses are left out.
Known T/C of a selection of molecules
RESULT TYPE: T/C

[[record]]
molecule = "O=C(O)Cc1cccc(S(=O)(=O)F)c1"
result_type = "T/C"
value_observed = "105 % of control"

[[record]]
molecule = "Oc1ccc(Nc2ncnc3nc[nH]c23)cc1O"
result_type = "T/C"
value_observed = "89 % of control"

[[record]]
molecule = "CC1(C)N=C(N)N=C(N)N1c1ccc2c(Cl)c(Cl)ccc2c1"
result_type = "T/C"
value_observed = "107 % of control"

[[record]]
molecule = "OC1CCCC/C1=C/C=C/c1ccccc1 (stereo not drawn)"
result_type = "T/C"
value_observed = "92 % of control"

[[record]]
molecule = "Oc1cccc2oc(=S)[nH]c12"
result_type = "T/C"
value_observed = "110 % of control"

[[record]]
molecule = "CSCCC(NC(=O)CNC(=O)OCc1ccccc1)C(=O)O (stereo not drawn)"
result_type = "T/C"
value_observed = "95 % of control"

[[record]]
molecule = "CC(C)(C)N(Cc1ccccc1)Cc1ccccc1"
result_type = "T/C"
value_observed = "98 % of control"

[[record]]
molecule = "COc1ccc(C(C)(C#N)Nc2ccccc2)cc1 (stereo not drawn)"
result_type = "T/C"
value_observed = "96 % of control"

[[record]]
molecule = "COc1cc(/C=N/NC(=O)c2ccncc2)cc(OC)c1OC"
result_type = "T/C"
value_observed = "118 % of control"

[[record]]
molecule = "COc1cc(/C=C2\\C(=O)C=C(C)CC2(C)C)ccc1O"
result_type = "T/C"
value_observed = "90 % of control"

[[record]]
molecule = "CCNC(=O)OCCN1C(=O)C2C3CCC(O3)C2C1=O (stereo not drawn)"
result_type = "T/C"
value_observed = "100 % of control"

[[record]]
molecule = "BrC1C2CC(c3ccccc32)C1Br (stereo not drawn)"
result_type = "T/C"
value_observed = "93 % of control"

[[record]]
molecule = "CCCCCCCCCCOP1(=O)C=C(C)CC1 (stereo not drawn)"
result_type = "T/C"
value_observed = "93 % of control"


----------
# Test system: L1210 leukemia ip in BDF1 mice, survival T/C
# METHOD SUMMARY: NCI In Vivo Anticancer Drug Screen. Data for tumor model L1210 Leukemia (intraperitoneal) in B6D2F1 (BDF1) mice
# CONDITION INFO: endpoint: mean survival time; dose: 200.0 mg/kg/injection; schedule: Q01DX009 (ip); vehicle: saline with Tween-80; higher = longer survival
Toxic doses and inconclusive results are not listed.
Catalogue of T/C values
RESULT TYPE: T/C

[[record]]
molecule = "O=C(O)/C(Cc1cnc2ccccc2n1)=N\\O"
target_or_test_system = "L1210 leukemia ip in BDF1 mice, survival T/C"
value_observed = "104 % of control"

[[record]]
molecule = "Cc1ccc(S(=O)(=O)N/N=C(/c2ccccc2)c2cccs2)cc1"
target_or_test_system = "L1210 leukemia ip in BDF1 mice, survival T/C"
value_observed = "91 % of control"

[[record]]
molecule = "O=C(O)COc1ccccc1CO"
target_or_test_system = "L1210 leukemia ip in BDF1 mice, survival T/C"
value_observed = "94 % of control"

[[record]]
molecule = "Clc1nc2nc(Cl)n(Cl)c2nc1Cl"
target_or_test_system = "L1210 leukemia ip in BDF1 mice, survival T/C"
value_observed = "91 % of control"

[[record]]
molecule = "CN(C)c1nc(N(C)C)nc(N(C)C)n1"
target_or_test_system = "L1210 leukemia ip in BDF1 mice, survival T/C"
value_observed = "124 % of control"

[[record]]
molecule = "Cc1ccc(C)c(Br)c1C"
target_or_test_system = "L1210 leukemia ip in BDF1 mice, survival T/C"
value_observed = "104 % of control"

[[record]]
molecule = "COc1cc2c(cc1OC(C)=O)C(=O)C(Br)CCC2 (configuration not stated)"
target_or_test_system = "L1210 leukemia ip in BDF1 mice, survival T/C"
value_observed = "93 % of control"


----------
# Tested on: L1210 leukemia ip in BDF1 mice, survival T/C
# METHOD SUMMARY: NCI In Vivo Anticancer Drug Screen. Data for tumor model L1210 Leukemia (intraperitoneal) in B6D2F1 (BDF1) mice
# CONDITION INFO: endpoint: mean survival time; dose: 200.0 mg/kg/injection; schedule: Q01DX001 (ip); vehicle: Klucel (hydroxypropylcellulose) (HPC); higher = longer survival
Toxic doses and inconclusive results are not listed.
The reader will find reported T/C values listed item by item below.
RESULT TYPE: T/C

[[record]]
compound = "CN(C(=O)NCCCl)C1CCC(C(=O)O)CC1 (stereo not given)"
value_observed = "88 % of control"

[[record]]
compound = "CC(C)C(C)/C=C/C(C)C1CCC2C3CCC4CC(O)CCC4(C)C3CCC12C (stereo not given)"
value_observed = "97 % of control"

[[record]]
compound = "NC(=O)c1cc(NCCO)c([N+](=O)[O-])cc1[N+](=O)[O-]"
value_observed = "100 % of control"

[[record]]
compound = "O=C(c1ccc(Cl)cc1)c1nonc1C(=O)c1ccc(Cl)cc1"
value_observed = "96 % of control"

[[record]]
compound = "CCOC(=O)c1cc2ccccc2[nH]1"
value_observed = "93 % of control"


----------
T/C by entry:
# System: L1210 leukemia ip in BDF1 mice, survival T/C
# METHOD SUMMARY: NCI In Vivo Anticancer Drug Screen. Data for tumor model L1210 Leukemia (intraperitoneal) in B6D2F1 (BDF1) mice
# CONDITION INFO: endpoint: mean survival time; dose: 150.0 mg/kg/injection; schedule: Q01DX001 (ip); vehicle: saline; higher = longer survival
Inconclusive results and toxic doses are left out.
RESULT TYPE: T/C

[[record]]
molecule = "F[Si](c1ccccc1)(c1ccccc1)c1ccccc1"
result_type = "T/C"
value_observed = "102 % of control"

[[record]]
molecule = "CCN(CC)C(=O)c1cccnc1"
result_type = "T/C"
value_observed = "94 % of control"

[[record]]
molecule = "Cc1ccc(Cl)cc1N=C=S"
result_type = "T/C"
value_observed = "101 % of control"

[[record]]
molecule = "C(=C/P(c1ccccc1)c1ccccc1)/P(c1ccccc1)c1ccccc1"
result_type = "T/C"
value_observed = "98 % of control"

[[record]]
molecule = "CCC(=O)N/N=C/C=N/NC(=O)c1ccncc1"
result_type = "T/C"
value_observed = "99 % of control"

[[record]]
molecule = "ONC12CCCCC1(Cl)CCCC2 (stereo not given)"
result_type = "T/C"
value_observed = "94 % of control"

[[record]]
molecule = "COc1cc(O)c(/C=N\\N=C\\c2ccco2)c(OC)c1"
result_type = "T/C"
value_observed = "90 % of control"

[[record]]
molecule = "O=C1Nc2ccccc2C12CNCS2 (stereo not given)"
result_type = "T/C"
value_observed = "98 % of control"

[[record]]
molecule = "O=C(O)C1C=CCC2C(=O)OC(=O)C12 (stereo not given)"
result_type = "T/C"
value_observed = "102 % of control"

[[record]]
molecule = "O=C(O)CC(C(=O)O)C1CCCC1 (stereo not given)"
result_type = "T/C"
value_observed = "94 % of control"

